Target: VIM-1 (Pseudomonas aeruginosa (strain ATCC 15692 / DSM 22644 / CIP 104116 / JCM 14847 / LMG 12228 / 1C / PRS 101 / PAO1), UniProt A0A0F7KYQ8)
Assay: biochemical
Conditions: CCF2-FA fluorescence assay, 2 hours at 25° C.; read-out: VIM1 IC50
value-kind: pIC50
A value of pIC50 is the negative decimal logarithm of a concentration given in moles per litre.

For orientation, consider the following solved cases.
NS(=O)(=O)c1c(S(=O)(=O)N[C@@H]2CCNC2)ccc(N2CCC(CCO)C2)c1-c1nnn[nH]1 (stereo partly shown)
9.29
NC[C@@H](O)CNS(=O)(=O)c1ccc(N2CCC3(CC2)CC3N)c(-c2nn[nH]n2)c1S(N)(=O)=O (stereo partly shown)
8.83
NC[C@@H](O)CNS(=O)(=O)c1ccc(N2CCC(CO)CC2)c(-c2nnn[nH]2)c1S(N)(=O)=O
9.80

In the following, a different compound is considered.
Per the records, this compound ( NCC1(O)CCN(c2ccc(S(=O)(=O)N[C@@H]3CCNC3)c(S(N)(=O)=O)c2-c2nnn[nH]2)CC1 ) has pIC50 equal to 8.67
